System: NK-92 (IL-2 2.5 ng/mL);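 note: normalised to DMSO-only wells as negative and benzethonium chloride as positive control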
method: percent inhibition of viability; higher = more inhibition
experimental-parameters: 72 h; 1 nM
So I've got a bunch of compounds here, and I need their percent inhibition of viability values.
// return numeric value only (unit: %, not printed)

Inquiry: Fill in: percent inhibition of viability of CC(=O)NCC(=O)N1[C@@H]2CC[C@H]1c1ccc(Nc3ncc(C(F)(F)F)c(NC4CCC4)n3)cc12 (max concentration tested 10000 nM) is ___
Reply text: -9.89

Inquiry: Which percent inhibition of viability value belongs to CC(C)Oc1ccc(C(=O)N[C@H](CNC(=O)CN(C)C)Cc2ccc(-c3cn4cccc([C@H](C)O)c4n3)cc2)cc1Cl (max concentration tested 10000 nM) ?
Reply text: 0.16

Inquiry: Form field: reported percent inhibition of viability of Oc1ncc(N(CCCl)CCCl)c(O)n1 [Uracil mustard] (max concentration tested 10000 nM)
Reply text: -13

Inquiry: If you can, please state the reported percent inhibition of viability value of O=NN(CCCl)C(=O)NCCCl [Carmustine] (max concentration tested 10000 nM) .
Reply text: -3.64

Inquiry: Entry under review: Cc1cc(C(C)Nc2ccccc2)c2nc(N3CCOCC3)cc(=O)n2c1 (stereo unspecified) [TGX-221] (max concentration tested 10000 nM) . Reported percent inhibition of viability?
Reply text: 2.02

Inquiry: For the compound CCc1nc(-c2cccc(C)c2)c(-c2ccnc(NC(=O)c3ccccc3)c2)s1 [TAK-715] (max concentration tested 10000 nM) , what percent inhibition of viability is on record?
Reply text: -3.47

Value source: the supplement of paper PMC5908809
